Attribution: patent US20260234242A1

- TEST_SYSTEM: T1, his-tagged human CDH6 extracellular region protein (hCDH6 ECD-his) (human, UniProt P55285 19-615)
- T1 construct: also called Human CDH6-his; hCDH6-his; not shown: his tag
- T1 sequence: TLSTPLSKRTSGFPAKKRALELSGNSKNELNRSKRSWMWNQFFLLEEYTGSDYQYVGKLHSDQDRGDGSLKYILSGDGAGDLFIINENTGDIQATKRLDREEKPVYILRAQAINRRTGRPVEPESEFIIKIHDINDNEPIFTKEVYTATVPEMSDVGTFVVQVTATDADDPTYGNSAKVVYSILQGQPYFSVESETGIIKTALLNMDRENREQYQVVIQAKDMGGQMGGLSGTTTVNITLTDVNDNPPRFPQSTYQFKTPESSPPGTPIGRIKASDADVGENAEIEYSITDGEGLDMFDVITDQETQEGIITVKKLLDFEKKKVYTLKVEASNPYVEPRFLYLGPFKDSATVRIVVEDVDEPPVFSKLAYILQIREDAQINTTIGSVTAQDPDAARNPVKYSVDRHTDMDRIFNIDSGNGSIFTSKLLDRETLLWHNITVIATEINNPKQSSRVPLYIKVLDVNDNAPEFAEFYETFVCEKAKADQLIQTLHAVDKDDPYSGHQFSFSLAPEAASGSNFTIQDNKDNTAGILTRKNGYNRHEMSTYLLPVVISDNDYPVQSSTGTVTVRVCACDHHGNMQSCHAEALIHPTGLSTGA
- TEST_METHOD_NOTES: SPR Biacore, antibody captured on Protein A
VALUE_TYPE: koff (s⁻¹)

1) CHI-CDH6-1 (antibody, human IgG1, kappa, V domains shown, also called CHI-hCDH6-1; CH1-CDH6-1) VH: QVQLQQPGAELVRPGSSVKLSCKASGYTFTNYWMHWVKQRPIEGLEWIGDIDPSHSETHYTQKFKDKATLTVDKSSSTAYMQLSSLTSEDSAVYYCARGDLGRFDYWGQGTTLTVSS VL: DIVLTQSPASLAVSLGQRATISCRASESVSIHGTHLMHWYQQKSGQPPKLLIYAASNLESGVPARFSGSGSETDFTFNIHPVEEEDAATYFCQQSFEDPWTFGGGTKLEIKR = 0.00504
2) hCDH6-1-H1L2 (antibody, V domains shown, Humanized) VH: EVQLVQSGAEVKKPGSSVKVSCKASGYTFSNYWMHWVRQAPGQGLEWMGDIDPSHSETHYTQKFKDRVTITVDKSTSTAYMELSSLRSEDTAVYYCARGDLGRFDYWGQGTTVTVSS VL: DIVMTQSPDSLAVSLGERATINCRASESVSIHGTHLMHWYQQKSGQPPKLLIYAASNLESGVPDRFSGSGSETDFTLTISSLQAEDVAVYYCQQSFEDPWTFGGGTKVEIK = 0.00422
3) hCDH6-1-H1L1 (antibody, V domains shown, Humanized) VH: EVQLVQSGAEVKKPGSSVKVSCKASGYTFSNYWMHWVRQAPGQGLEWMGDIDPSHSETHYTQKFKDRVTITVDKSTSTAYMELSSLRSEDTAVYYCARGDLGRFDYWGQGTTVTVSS VL: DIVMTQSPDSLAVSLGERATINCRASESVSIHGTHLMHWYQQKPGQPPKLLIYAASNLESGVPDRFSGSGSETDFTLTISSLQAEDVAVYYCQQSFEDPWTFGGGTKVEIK = 0.00456
4) hCDH6-1-H2L3 (antibody, V domains shown, Humanized) VH: EVQLVQSGAEVKKPGSSVKVSCKASGYTFTNYWMHWVRQAPGQGLEWMGDIDPSHSETHYTQKFKDRVTITVDKSTSTAYMELSSLRSEDTAVYYCARGDLGRFDYWGQGTTVTVSS VL: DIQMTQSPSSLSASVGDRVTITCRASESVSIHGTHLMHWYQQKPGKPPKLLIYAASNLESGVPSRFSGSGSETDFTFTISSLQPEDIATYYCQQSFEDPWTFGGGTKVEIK = 0.00821
5) hCDH6-1-H1L3 (antibody, V domains shown, Humanized) VH: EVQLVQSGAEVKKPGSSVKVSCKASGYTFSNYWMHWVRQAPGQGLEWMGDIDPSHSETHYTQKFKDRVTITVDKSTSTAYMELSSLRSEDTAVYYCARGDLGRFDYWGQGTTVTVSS VL: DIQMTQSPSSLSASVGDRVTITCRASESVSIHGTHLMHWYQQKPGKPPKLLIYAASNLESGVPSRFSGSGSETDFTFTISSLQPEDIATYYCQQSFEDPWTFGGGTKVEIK = 0.00824
